Reported pIC50 values for the following molecules.
system: HT29; test: Growth inhibition test (MTT), cytotoxic action on tumour cell lines; format: cell-based, human; settings: human, 6 days
To interpret pIC50, take it as minus log10 of a concentration measured in moles per litre.

MOLECULE	VALUE_TYPE	OBSERVED_VALUE
CCCNC(=O)Nc1cccc(S(=O)(=O)Nc2cccc(C(CC(=O)O)NC(=O)Nc3ccc(NC(=S)N4CCC[C@@H]4C(=O)N[C@@H](CC(C)C)C(=O)NCC(=O)N[C@H](CC(C)C)C(=O)N[C@H](Cc4c[nH]cn4)C(=O)N[C@@H](C(=O)O[C@@]4(CC)C(=O)OCc5c4cc4n(c5=O)Cc5cc6ccccc6nc5-4)C(C)C)cc3)c2)c1 (single isomer, unassigned) [Example 3]	pIC50	6.70

Can you look up the measured pIC50 of CCCNC(=O)Nc1cccc(S(=O)(=O)Nc2cccc(C(CC(=O)O)NC(=O)Nc3ccc(NC(=S)N4CCC[C@@H]4C(=O)N[C@@H](CC(C)C)C(=O)NCC(=O)N[C@H](CC(C)C)C(=O)N[C@H](Cc4c[nH]cn4)C(=O)N[C@@H](C(=O)O[C@@]4(CC)C(=O)OCc5c4cc4n(c5=O)Cc5cc6ccccc6nc5-4)C(C)C)cc3)c2)c1 (stereo partly drawn) [Example 1] for me?
7.30

For CCCNC(=O)Nc1cccc(S(=O)(=O)Nc2cccc(C(CC(=O)O)NC(=O)Nc3ccc(NC(=S)N4CCC[C@@H]4C(=O)N[C@@H](CC(C)C)C(=O)NCC(=O)N[C@H](CC(C)C)C(=O)N[C@H](Cc4c[nH]cn4)C(=O)N[C@@H](C(=O)O[C@@]4(CC)C(=O)OCc5c4cc4n(c5=O)Cc5cc6ccccc6nc5-4)C(C)C)cc3)c2)c1 (single isomer, unassigned) [Example 2] , what is its reported pIC50?
6.74

###

test system: B16F10; assay: Growth inhibition test (MTT), cytotoxic action on tumour cell lines; type: cell-based, mouse; conditions: B16F10; MTT after day 6; read-out: IC50 values of the cytotoxic action on tumour cell lines, B16F10
*1 amine or outer side, *2 acyl side, *3 side chain or, on linkers, in order; H or OH if unused. Where a SMILES comes first, the peptide text is derived from it. [ ]: non-standard residue; d: D form. The star is where a group is joined. Camptothecin(20R,20-O) = CC[C@]1(O*)C(=O)OCc2c1cc1n(c2=O)Cc2cc3ccccc3nc2-1; X3 = O=C(Nc1cccc(-c2ccc(S(=O)(=O)*)cc2)c1)Nc1nc2ccccc2[nH]1; X4 = O=C(O)CC(N[*:1])c1cccc(NC(=S)[*:2])c1
Listing of recorded pIC50 by entry.
# reply with the number alone; pIC50 is -log10 of concentration in mol/L

COMPOUND	pIC50
CCCNC(=O)Nc1cccc(S(=O)(=O)Nc2cccc(C(CC(=O)O)NC(=O)Nc3ccc(NC(=S)N4CCC[C@@H]4C(=O)N[C@@H](CC(C)C)C(=O)NCC(=O)N[C@H](CC(C)C)C(=O)N[C@@H](C(=O)O[C@@]4(CC)C(=O)OCc5c4cc4n(c5=O)Cc5cc6ccccc6nc5-4)C(C)C)cc3)c2)c1 (single isomer, unassigned)	6.10

Look at this compound and give its reported pIC50. CC[C@]1(OC(=O)[C@H](NC(=O)[C@@H](Cc2c[nH]cn2)NC(=O)[C@@H](CC(C)C)NC(=O)CNC(=O)[C@H](CC(C)C)NC(=O)[C@H]2CCCN2C(=S)Nc2cccc(C(CC(=O)O)NS(=O)(=O)c3ccc(-c4cccc(NC(=O)Nc5nc6ccccc6[nH]5)c4)cc3)c2)C(C)C)C(=O)OCc2c1cc1n(c2=O)Cc2cc3ccccc3nc2-1 (stereo partly drawn) [Example 4] (X3-[X4][dP]LG[dL][dH][dV]-{Camptothecin(20R,20-O)})
6.40

###

system: B16F10; experiment: Growth inhibition test (MTT), cytotoxic action on tumour cell lines; assay type: cell-based, mouse; details: mouse, 6 day
VALUE_TYPE: pIC50
Entry type: numeric. Quantity: pIC50, the -log10 of concentration in molar units.

Which pIC50 value is on record for CCCNC(=O)Nc1cccc(S(=O)(=O)Nc2cccc(C(CC(=O)O)NC(=O)Nc3ccc(NC(=S)N4CCC[C@H]4C(=O)N[C@@H](CC(C)C)C(=O)NCC(=O)N[C@@H](CC(C)C)C(=O)N[C@@H](CCC(=O)O)C(=O)N[C@H](C(=O)O[C@]4(CC)C(=O)OCc5c4cc4n(c5=O)Cc5cc6ccccc6nc5-4)C(C)C)cc3)c2)c1 (stereo partly shown) ?
6.52

###

system: SW 480; experiment: Growth inhibition test (MTT), cytotoxic action on tumour cell lines; format: cell-based, human; conditions: human, 6 days
VALUE_TYPE: pIC50
Please treat pIC50 as minus the base-10 logarithm of the molar concentration.

Sample answers from the record:
COMPOUND	pIC50
CCCNC(=O)Nc1cccc(S(=O)(=O)Nc2cccc(C(CC(=O)O)NC(=O)Nc3ccc(NC(=S)N4CCC[C@@H]4C(=O)N[C@@H](CC(C)C)C(=O)NCC(=O)N[C@H](CC(C)C)C(=O)N[C@H](Cc4c[nH]cn4)C(=O)N[C@@H](C(=O)O[C@@]4(CC)C(=O)OCc5c4cc4n(c5=O)Cc5cc6ccccc6nc5-4)C(C)C)cc3)c2)c1 (single isomer, unassigned) [Example 3]	6.82
CCCNC(=O)Nc1cccc(S(=O)(=O)Nc2cccc(C(CC(=O)O)NC(=O)Nc3ccc(NC(=S)N4CCC[C@@H]4C(=O)N[C@@H](CC(C)C)C(=O)NCC(=O)N[C@H](CC(C)C)C(=O)N[C@H](CC(N)=O)C(=O)N[C@@H](C(=O)O[C@@]4(CC)C(=O)OCc5c4cc4n(c5=O)Cc5cc6ccccc6nc5-4)C(C)C)cc3)c2)c1 (stereo partly drawn) [Example 9]	7.22

In the following, a different compound is considered.
// query pIC50 value for entry CCCNC(=O)Nc1cccc(S(=O)(=O)Nc2cccc(C(CC(=O)O)NC(=O)Nc3ccc(NC(=S)N4CCC[C@@H]4C(=O)N[C@@H](CC(C)C)C(=O)NCC(=O)N[C@H](CC(C)C)C(=O)N[C@H](CC(N)=O)C(=O)N[C@@H](C(=O)O[C@@]4(CC)C(=O)OCc5c4cc4n(c5=O)Cc5cc6ccccc6nc5-4)C(C)C)cc3)c2)c1 (single isomer, unassigned) [Example 11]
6.82

###

system: SW 480; experiment: Growth inhibition test (MTT), cytotoxic action on tumour cell lines; format: cell-based, human; details: SW480; MTT after day 6; read-out: IC50 values of the cytotoxic action on tumour cell lines, SW480
*1 amine or outer side, *2 acyl side, *3 side chain or, on linkers, in order; H or OH if unused. Where a SMILES comes first, the peptide text is derived from it. [ ]: non-standard residue; d: D form. The star is where a group is joined. Camptothecin(20R,20-O) = CC[C@]1(O*)C(=O)OCc2c1cc1n(c2=O)Cc2cc3ccccc3nc2-1; X5 = O=C(Nc1cccc(-c2cccc(S(=O)(=O)*)c2)c1)Nc1nc2ccccc2[nH]1; X1 = CCCNC(=O)Nc1cccc(S(=O)(=O)Nc2cccc(C(CC(=O)O)N*)c2)c1; NH(1,4-C6H4)NHCS = S=C(Nc1ccc(N[*:1])cc1)[*:2]; X4 = O=C(O)CC(N[*:1])c1cccc(NC(=S)[*:2])c1; CO = O=C([*:1])[*:2]
VALUE_TYPE: pIC50
pIC50 is defined as minus the log10 of a concentration measured in mol/L.

Field: example entries. Status: answers known.
MOLECULE	pIC50
CCCNC(=O)Nc1cccc(S(=O)(=O)Nc2cccc(C(CC(=O)O)NC(=O)Nc3ccc(NC(=S)N4CCC[C@@H]4C(=O)NCC(=O)NCC(=O)N[C@H](CC(C)C)C(=O)N[C@H](CC(N)=O)C(=O)N[C@@H](C(=O)O[C@@]4(CC)C(=O)OCc5c4cc4n(c5=O)Cc5cc6ccccc6nc5-4)C(C)C)cc3)c2)c1 (stereo partly drawn) [Example 23] ({X1-CO}-[NH(1,4-C6H4)NHCS][dP]GG[dL][dN][dV]-{Camptothecin(20R,20-O)})	6.40
CCCNC(=O)Nc1cccc(S(=O)(=O)Nc2cccc(C(CC(=O)O)NC(=O)Nc3ccc(NC(=S)N4CCC[C@@H]4C(=O)N[C@@H](CC(C)C)C(=O)NCC(=O)N[C@H](CC(C)C)C(=O)N[C@@H](C(=O)O[C@@]4(CC)C(=O)OCc5c4cc4n(c5=O)Cc5cc6ccccc6nc5-4)C(C)C)cc3)c2)c1 (single isomer, unassigned)	6.70
CCCNC(=O)Nc1cccc(S(=O)(=O)Nc2cccc(C(CC(=O)O)NC(=O)Nc3ccc(NC(=S)N4CCC[C@H]4C(=O)N[C@@H](CC(C)C)C(=O)NCC(=O)N[C@@H](CC(C)C)C(=O)N[C@H](C(=O)N[C@H](C(=O)O[C@]4(CC)C(=O)OCc5c4cc4n(c5=O)Cc5cc6ccccc6nc5-4)C(C)C)C(C)C)cc3)c2)c1 (stereo partly drawn)	6.92
CCCCNC(=O)Nc1cccc(S(=O)(=O)Nc2cccc(C(CC(=O)O)NC(=O)Nc3ccc(NC(=S)NCC(=O)N4CCC[C@@H]4C(=O)N[C@@H](CC(C)C)C(=O)NCC(=O)N[C@H](CC(C)C)C(=O)N[C@H](CC(N)=O)C(=O)N[C@@H](C(=O)O[C@@]4(CC)C(=O)OCc5c4cc4n(c5=O)Cc5cc6ccccc6nc5-4)C(C)C)cc3)c2)c1 (single isomer, unassigned)	7.52

Lookup: pIC50 / SW 480 / CCCNC(=O)Nc1cccc(S(=O)(=O)Nc2cccc(C(CC(=O)O)NC(=O)Nc3ccc(NC(=S)N4CCC[C@H]4C(=O)N[C@@H](CC(C)C)C(=O)NCC(=O)N[C@@H](CC(C)C)C(=O)N[C@@H](CO)C(=O)N[C@H](C(=O)O[C@]4(CC)C(=O)OCc5c4cc4n(c5=O)Cc5cc6ccccc6nc5-4)C(C)C)cc3)c2)c1 (stereo partly drawn)
7.00

SW 480 / pIC50 / CC[C@]1(OC(=O)[C@H](NC(=O)[C@@H](Cc2c[nH]cn2)NC(=O)[C@@H](CC(C)C)NC(=O)CNC(=O)[C@H](CC(C)C)NC(=O)[C@H]2CCCN2C(=S)Nc2cccc(C(CC(=O)O)NS(=O)(=O)c3cccc(-c4cccc(NC(=O)Nc5nc6ccccc6[nH]5)c4)c3)c2)C(C)C)C(=O)OCc2c1cc1n(c2=O)Cc2cc3ccccc3nc2-1 (stereo partly drawn) [Example 5] (X5-[X4][dP]LG[dL][dH][dV]-{Camptothecin(20R,20-O)}) : value?
7.10

These measurements were taken from patent US20020183256A1.
